Test description: Pharmacokinetic profile in mice
Parameters: species or system mice (C57BL/6)
Condition details: mouse, in vivo; 5 mg/kg IKE, single IV bolus or single oral gavage, C57BL/6 mice
Measured endpoint: bioavailability (%)

INSERT INTO results (smiles_structure, unit_abbrev, test_result) VALUES
  ('CC(C)Oc1ccc(C(=O)Cn2ccnc2)cc1-n1c(CN2CCN(C(=O)COc3ccc(Cl)cc3)CC2)nc2ccccc2c1=O', '%', 2.49);

====

Test system: BJeLR
Test description: Concentration-dependent growth inhibition (alamar blue), isogenic BJ cell lines
Format: cell-based, human
Condition details: Homo sapiens, BJeLR, 48 h; 2 days, alamar blue
pIC50: −log10 of the molar value.
Tick class 1 if pIC50 is 8 or greater. Tick class 0 if pIC50 is less than 8.

INSERT INTO measurements (smiles_structure, assigned_category) VALUES
  ('CC(C)Oc1ccc(C(=O)CN2CCN(C)CC2)cc1-n1c(CN2CCN(C(=O)COc3ccc(Cl)cc3)CC2)nc2ccccc2c1=O', 'class 0'),
  ('CC(C)Oc1ccc(C(=O)Cn2ccnc2)cc1-n1c(CN2CCN(C(=O)COc3ccc(Cl)cc3)CC2)nc2ccccc2c1=O', 'class 1'),
  ('C=CCN1CCN(CC(=O)c2ccc(OC(C)C)c(-n3c(CN4CCN(C(=O)COc5ccc(Cl)cc5)CC4)nc4ccccc4c3=O)c2)CC1', 'class 0'),
  ('CC(C)Oc1ccc(C(=O)CN2CCOCC2)cc1-n1c(CN2CCN(C(=O)COc3ccc(Cl)cc3)CC2)nc2ccccc2c1=O', 'class 0');

Recorded values, source patent US9938245B2.
